Origin of the recorded values: patent US20060276464A1

measurement target: UniProt:Q8N474
pIC50: −log10 of the molar value.
observable: pIC50

CC(=O)Nc1ccc(C(=O)N2CCC(NS(=O)(=O)c3cc(S(=O)(=O)c4ccccc4)ccc3C)CC2)cc1
5.54
CC(C)c1ccc(S(=O)(=O)c2ccc(F)cc2)cc1S(=O)(=O)NC1CCS(=O)(=O)CC1
5.85
CC(C)c1cc(C(C)C)c(S(=O)(=O)c2ccccc2)cc1S(=O)(=O)NCCc1ccccn1
5.89
CCC(CC)C(=O)N(C)CCNS(=O)(=O)c1cc(S(=O)(=O)c2ccccc2)ccc1C(F)(F)F
6.52
CC(C)c1ccc(S(=O)(=O)c2ccc(N(C)CCC#N)cc2)cc1S(=O)(=O)NCC1CCOCC1
6.00
Cc1ccc(S(=O)(=O)c2ccc(Br)cc2)cc1S(=O)(=O)NCCc1ccccn1
5.40
COc1ccc(S(=O)(=O)c2ccc(C(F)(F)F)c(S(=O)(=O)NC3CCNCC3)c2)cc1
6.10
CC(C)c1ccc(S(=O)(=O)c2ccc(F)cc2)cc1S(=O)(=O)NC1CCNCC1
5.62
Cc1ccc(S(=O)(=O)c2ccccc2)cc1S(=O)(=O)NC1CCN(C(=O)c2ccc(N(C)C)cc2)CC1
6.05
O=S(=O)(NCc1cccc(Br)c1)c1cc(S(=O)(=O)c2ccccc2)ccc1C(F)(F)F
5.64

A: COc1ccc2c(c1)C(O)C(NS(=O)(=O)c1cc(S(=O)(=O)c3ccccc3)ccc1C(F)(F)F)C2 (stereo not shown)
B: O=S(=O)(NCCc1ccccc1)c1cc(S(=O)(=O)c2ccccc2)ccc1C(F)(F)F
C: Cc1cc(F)ccc1S(=O)(=O)c1ccc(C(C)C)c(S(=O)(=O)NCCc2ccccn2)c1
D: Cc1ccc(S(=O)(=O)c2ccccc2)cc1S(=O)(=O)NC1CCN(C(=O)N2CCOCC2)CC1
INPUT: Highest pIC50 first, then in falling order down to the smallest. Provide the ranking by listing each label in its place in the requested order.
OUTPUT: B, A, C, D
(B: 6.80, A: 6.30, C: 5.80, D: 5.52)

a: CNC(=O)CN1CCC(NS(=O)(=O)c2cc(S(=O)(=O)c3ccccc3)ccc2C(F)(F)F)CC1
b: CCc1ccc(S(=O)(=O)c2ccc(F)cc2)cc1S(=O)(=O)NCCCn1ccnc1
INPUT: Between the two listed entries a and b , which has its pIC50 at the higher number? Please indicate the selected item by its label.
OUTPUT: a

* * *

measurement target: SFRP-1 (Homo sapiens)
Sequence (Q8N474 32-314): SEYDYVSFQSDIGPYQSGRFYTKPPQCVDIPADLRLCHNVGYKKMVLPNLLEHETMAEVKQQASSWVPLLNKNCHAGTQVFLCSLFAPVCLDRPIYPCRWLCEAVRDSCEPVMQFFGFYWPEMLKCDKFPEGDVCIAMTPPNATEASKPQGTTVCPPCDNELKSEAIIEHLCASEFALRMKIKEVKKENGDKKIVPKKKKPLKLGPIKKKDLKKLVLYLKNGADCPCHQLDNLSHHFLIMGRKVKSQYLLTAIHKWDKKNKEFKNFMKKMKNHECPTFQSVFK
assay method text: Cell-based assay for in vitro measurement of SFRP-1/SARP2 antagonist activity (U2OS cells co-transfected with 16x TCF-tk-Luciferase reporter, Wnt and hSFRP-1);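 note: U2OS cells co-transfected with a TCF-tk luciferase reporter, a Wnt vector, hSFRP-1 or empty vector and CMV-βgal, luciferase luminescence read in cell lysates alongside βgal activity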
cond: U2OS, read-out: Fold Induction with SFRP-1, Conc 15 μM; with SFRP-1; fold induction over SFRP-1 control, single dose
observable: fold induction at 15 µM

Cc1ccc(S(=O)(=O)c2ccccc2)cc1S(=O)(=O)NC1CCNCC1
3
CCc1ccc(S(=O)(=O)c2ccccc2)cc1S(=O)(=O)N[C@H]1C[C@@H]1c1ccccc1
2
CCc1ccc(S(=O)(=O)c2ccc(F)cc2)cc1S(=O)(=O)NCC1CCOCC1
2.6
CC(C)c1ccc(S(=O)(=O)c2ccc(F)cc2)cc1S(=O)(=O)NC1CCOCC1
3.3
Cc1ccc(S(=O)(=O)c2cc(Cl)ccc2Cl)cc1S(=O)(=O)NCCCn1ccnc1
1.6

P: Cc1ccc(S(=O)(=O)c2cccc(O)c2)cc1S(=O)(=O)NCCc1ccccn1
Q: CCc1ccc(S(=O)(=O)c2ccccc2)cc1S(=O)(=O)NCCc1cccc(OC)c1
R: Cc1ccc(S(=O)(=O)c2ccc(C)c(S(=O)(=O)NC[C@@H](C)c3ccccc3)c2)cc1
INPUT: Order the items by recorded fold induction at 15 µM; the first position goes to the largest value. // ordering of labels required in reply
OUTPUT: Q, P, R
